Entries and their measured fold change follow.
test: sensitizers of A549 cells to miR-34 induction, primary screen, imaging, A549 dox-inducible miR-34, nuclei and caspase counts (AID 1347080); conditions: A549 miR-34 inducible, Hoechst nuclei count, 48 h; measured here: relative caspase fold change +Dox/-Dox
METRIC: fold change

COMPOUND | METRIC | MEAS VALUE
CC[C@@]1(O)C(=O)OCc2c1cc1n(c2=O)-c2cc3ccccc3nc2C1 | fold change | 0.79
C[C@]12CCC(=O)C(O)=C1CC[C@@H]1[C@H]2CC[C@]2(C)C(=O)CC[C@@H]12 | fold change | 0.764
CN1C2C[C@H](OC(=O)[C@H](CO)c3ccccc3)C[C@H]1[C@@H](O)C2 | fold change | 0.859
C[C@@H]1O[C@@H](O[C@H]2C[C@@H](O)[C@]3(CO)C4C(CC[C@]3(O)C2)[C@@]2(O)CC[C@H](C3=CC(=O)OC3)[C@@]2(C)C[C@H]4O)[C@H](O)[C@H](O)[C@H]1O (stereo partly drawn) | fold change | 2.2
CCNC1(c2cccs2)CCCCC1=O (stereo not drawn) | fold change | 0.59
CC(C)(N)Cc1ccccc1 | fold change | 4.46
CCC(C)[C@H]1O[C@]2(C=C[C@@H]1C)C[C@@H]1C[C@@H](C/C=C(\C)[C@@H](OC3C[C@H](OC)C(O[C@H]4C[C@H](OC)[C@@H](O)[C@H](C)O4)[C@H](C)O3)[C@@H](C)/C=C/C=C3\CO[C@@H]4[C@H](O)C(C)=C[C@@H](C(=O)O1)[C@]34O)O2 (stereo partly drawn) | fold change | 1.23
C[N+]1(C)C2CC[C@H]1CC(OC(=O)C(CO)c1ccccc1)C2 (stereo partly drawn) | fold change | 1.32

---

Entries and their measured survival follow.
test: hESC survival regulators, cell-based (AID 493140); details: human embryonic stem cell survival screen; stronger effect = higher value;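 note: cells exposed to compounds for four days before counting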
Active and inactive are the calls of the source. No rule for the calls is given here.

COMPOUND | survival
CCN(CC)C(=O)N[C@H]1C[C@@H]2c3cccc4[nH]cc(c34)C[C@H]2N(C)C1 | 6 (inactive)
CCCCC/C=C\C/C=C\C/C=C\C=C\[C@H](CCCC(=O)O)OO | 114 (inactive)
C#CC1(O)CC[C@H]2[C@@H]3CCC4=CCCC[C@@H]4[C@H]3CC[C@@]21C (some centres not stated) | 37.7 (inactive)
CCCCCCCCCCCCCCCCOC[C@H](COP(=O)([O-])OCC[N+](C)(C)C)OC(C)=O | 57.8 (inactive)
CCC1(CC)C(=O)C=CNC1=O | 10.8 (inactive)
O=C(NCNC(=O)NC1C(=O)NC(=O)N1CO)NC1C(=O)NC(=O)N1CO (configuration not stated) | 33.2 (inactive)
C=C[C@@H]1CN2CCC1C[C@@H]2[C@H](O)c1ccnc2ccccc12 (some centres not stated) | 3.33 (inactive)
CCNCC(O)c1cccc(O)c1 (configuration not stated) | 9.33 (inactive)
NCC1(CC(=O)O)CCCCC1 | 2.25 (inactive)
C[C@]12CC[C@@H](O)C[C@@H]1CC[C@@H]1[C@@H]2CC[C@]2(C)C(=O)CC[C@@H]12 | 13.1 (inactive)
COc1ccc2c(c1OC)C(=O)O[C@@H]2[C@H]1c2cc3c(cc2CCN1C)OCO3 | 7.17 (inactive)
OC(c1ccccc1)(c1ccccc1)C1CCNCC1 | 34.8 (inactive)
CCN1C[C@]2(C)CC[C@H](O)C34C5C[C@H]6C(O)C5[C@](O)(C[C@@H]6OC)C(CC32)[C@@H]14 (some centres not stated) | 6.75 (inactive)
N#CC(C#N)=Cc1cc(O)c(O)c([N+](=O)[O-])c1 | 100 (inactive)
COc1ccc2c(c1)C13CCCC[C@@H]1C(C2)N(C)CC3 (some centres not stated) | 5.75 (inactive)
CCCC(C)(COC(N)=O)COC(=O)NC(C)C (configuration not stated) | 11.2 (inactive)
COc1ccc2c3c([nH]c2c1)C(C)=NCC3 | 6 (inactive)
COc1c2c(cc3c1OCO3)CCN(C)C2 | 4.08 (inactive)
OC[C@H]1O[C@@H](n2cnc3cc(Cl)c(Cl)cc32)C(O)[C@H]1O (some centres not stated) | 56.1 (inactive)
Clc1ccc(COC(Cn2ccnc2)c2ccc(Cl)cc2Cl)cc1 (configuration not stated) | 50.1 (inactive)
Oc1ccc2c3c1O[C@H]1[C@@H](O)CC[C@@]4(O)[C@@H](C2)N(CC2CCC2)CC[C@]314 | 24.5 (inactive)
C[N+]1(C)CCOC(O)(c2ccc(-c3ccc(C4(O)C[N+](C)(C)CCO4)cc3)cc2)C1 (configuration not stated) | 3.33 (inactive)
C#CCN(C)[C@H](C)Cc1ccccc1 | 12.8 (inactive)
CCCCC[C@@H](/C=C/C=C\C/C=C\C/C=C\CCCC(=O)O)OO | 120 (inactive)
COP(=O)(OC)C(O)C(Cl)(Cl)Cl (configuration not stated) | 17.5 (inactive)
COc1ccc(OC)c(C(O)C(C)N)c1 (configuration not stated) | 3.58 (inactive)
CCCCCCCCCCCCCCCC(=O)OC[C@H](COP(=O)([O-])OCC[N+](C)(C)C)OC(C)=O | 57 (inactive)
CCCCC/C=C\C/C=C\C/C=C\C/C=C\CCCC(=O)NCCc1ccc(O)c(O)c1 | 69.6 (inactive)
CN[C@@H]1CC2(C)OC([C@@H]1OC)n1c3ccccc3c3c4c(c5c6ccccc6n2c5c31)C(=O)NC4 (some centres not stated) | 0.333 (inactive)
O=C1CC[C@@]2(O)[C@H]3Cc4ccc(O)c5c4[C@@]2(CCN3CC2CC2)[C@H]1O5 | 16.1 (inactive)
CC1OC(OC2/C=C/C=C/C=C/C=C/CC/C=C/C=C/[C@H](C)[C@@H](O)[C@@H](C)[C@H](C)OC(=O)CC(O)CC(O)CC(O)CCC(O)C(O)C[C@]3(O)CC(O)C(C(=O)O)C(C2)O3)C(O)C(N)C1O (some centres not stated) | 8.92 (inactive)
COc1ccc(CN2CCNCC2)c(OC)c1OC | 5.83 (inactive)
CCCCc1ccc(C(=O)O)nc1 | 6.17 (inactive)
C[C@@H]1CN(C2CCC(C#N)(c3ccc(F)cc3)CC2)CC[C@]1(C(=O)O)c1ccccc1 (some centres not stated) | 4.42 (inactive)
CC[C@H]1CN2CCC1C[C@H]2[C@H](O)c1ccnc2ccc(OC)cc12 (some centres not stated) | 6.08 (inactive)
O=[N+]([O-])O[C@H]1CO[C@H]2[C@@H]1OC[C@H]2O[N+](=O)[O-] | 6 (inactive)
C[C@@H](N)[C@H](O)c1ccccc1 | 4.42 (inactive)
C=C[C@]12CN(C)C3C4COC(CC41)[C@]1(C(=O)Nc4ccccc41)[C@@H]32 (some centres not stated) | 4 (inactive)
CN1CC[C@@]2(C)c3cc(O)ccc3N(C)C12 (some centres not stated) | 4.58 (inactive)
CC(C)c1cccc(C(C)C)c1O | 5.17 (inactive)
C=C[C@H]1CN2CCC1C[C@@H]2[C@@H](O)c1ccnc2ccccc12 (some centres not stated) | 1.25 (inactive)
CC1CCC2(NC1)O[C@H]1C[C@H]3[C@@H]4CC=C5C[C@@H](O)CC[C@]5(C)[C@H]4CC[C@]3(C)[C@H]1[C@@H]2C (some centres not stated) | 4.83 (inactive)

---

experiment: differential killing of epithelial or mesenchymal cells, primary screen, imaging, PC-3E GFP, TEM4-18 mCherry, co-culture (AID 1345086); conditions: imaging cell counts, measured here: epithelial PC-3E GFP cell survival, at 1 µM;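 note: cells exposed to compound for 72 h before imaging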
Entries and their measured normalised cell number follow.

COMPOUND | normalised cell number
NC(=O)CN1CCCC1=O | 0.91
COP(=S)(OC)Oc1ccc(SC)c(C)c1 | 1.03
C[C@@H]1CC[C@H]2[C@@H](C)C(=O)O[C@@H]3O[C@]4(C)CC[C@@H]1[C@]32OO4 | 0.97
C[N+]12CC[C@@]34c5ccccc5N5C(=O)CC6OCC=C(C1)[C@@H](CC32)[C@@H]6C54 (some centres undefined) | 0.95
NC1=NC(=O)N2CC12 (centres undefined) | 1.2
CC1(C)C2CC(=O)[C@]3(C)C(CC[C@@]4(C)[C@H](c5ccoc5)OC(=O)[C@H]5O[C@]543)[C@@]2(C)C(=O)C[C@H]1O (some centres undefined) | 1.08
O=C1C(Cl)=C(Cl)C(=O)C(Cl)=C1Cl | 1
C[N+]1(C)CCc2cc3c(cc2[C@H]1C1OC(=O)c2c1ccc1c2OCO1)OCO3 (some centres undefined) | 1.35
COC1=C[C@@H]2[C@@H]3Cc4ccc(OC)c(O)c4[C@]2(CCN3C)CC1=O | 1.39
O=c1[nH]c(=O)n(Cl)c(=O)n1Cl | 0.87
COC[C@]12CN(C=O)C3[C@@H]4[C@H](OC)C1[C@]3(C1CC3(O)C(OC)C(O)C4(OC(C)=O)C1C3OC(=O)c1ccccc1)[C@@H](OC)C[C@H]2O (some centres undefined) | 1.06
COc1cc2c(cc1OC)[C@@H]1C(=O)c3ccc4oc(C(C)C)cc4c3O[C@@H]1CO2 | 1.25
Nc1nc(N)nc(NC2CC2)n1 | 1
C[C@]12CC[C@H](OC3OC(O)C(O)C(O)C3O)C=C1CCC1C2CC[C@]2(C)[C@@H](c3ccc(=O)oc3)CC[C@]12O (some centres undefined) | 0.18
O=C(CCCN1CCC2(CC1)C(=O)NCN2c1ccccc1)c1ccc(F)cc1 | 0.93
CC(C)N(CCC(C(N)=O)(c1ccccc1)c1ccccn1)C(C)C (centres undefined) | 1.22
Oc1ccc(Cl)cc1 | 1.1
Cc1cccc(C)c1NC1=NCCCS1 | 1.1
O=c1[nH]c2ccccc2n1C1CCN(CCCC(c2ccc(F)cc2)c2ccc(F)cc2)CC1 | 1.24
Clc1ccc(C(OCCN2CCCCC2)c2ccccc2)cc1 (centres undefined) | 1.02
CC(=O)NC1CCSC1=O (centres undefined) | 1.05
NC(N)=NOCC[C@H](N)C(=O)O | 0.91
COC(=O)NC(=S)Nc1ccccc1NC(=S)NC(=O)OC | 1.16
CC(C)[N+](C)(CCC(C(N)=O)(c1ccccc1)c1ccccc1)C(C)C | 1.19
C=C/C=C\CC1=C[C@@H](OC(=O)[C@@H]2[C@@H](C=C(C)C)C2(C)C)CC1=O | 1.35
CC(=O)CC1CCCCN1 (centres undefined) | 0.99
CCC1(CC)C(=O)NC(=O)NC1=O | 0.92
COc1ccc(Cc2nccc3cc(OC)c(OC)cc23)cc1OC | 1
COc1cc2c3cc1Oc1c(OC)c(OC)cc4c1[C@@H](Cc1cccc(c1)Oc1ccc(c(O)c1)C[C@@H]3N(C)CC2)N(C)CC4 | 0.83
O=c1c(O)c(-c2ccc(O)c(O)c2)oc2c(O)c(O)cc(O)c12 | 0.84
CC(=O)O[C@H]1C(=O)[C@@]2(C)C([C@H](OC(=O)c3ccccc3)[C@]3(O)C[C@H](O)C(C)=C1C3(C)C)[C@]1(OC(C)=O)CO[C@@H]1C[C@@H]2O (some centres undefined) | 0.99
CN1CCCCC1c1ccc(-c2cccnc2)nc1 (centres undefined) | 0.96
NCC(CC(=O)O)c1ccc(Cl)cc1 (centres undefined) | 1.3
CC1=C2CCC3C(CC[C@]4(C)C(=O)CCC34)[C@@]2(C)CCC1=O (some centres undefined) | 1.27
COc1cc2occc2c2oc(=O)ccc12 | 1
CC(=O)O[C@H]1C[C@@H](OC(C)=O)C(C)(C)C2C[C@@H](OC(C)=O)[C@]3(C)C(CC[C@@]4(C)[C@H](c5ccoc5)C(=O)[C@H]5O[C@]543)[C@]21C (some centres undefined) | 1.08
O=C1C=CC(=O)c2ccccc21 | 1.25
Clc1ccc(CO/N=C(\Cn2ccnc2)c2ccc(Cl)cc2Cl)c(Cl)c1 | 1.03
CCC(=O)O[C@H]1CCC2C3CCC4=CC(=O)CC[C@]4(C)C3CC[C@@]21C (some centres undefined) | 1.23
O=c1cccc2n1CC1CC2CN2CCCC[C@@H]12 (some centres undefined) | 0.92
CC(=O)C1CCC2C3CCC4C[C@H](O)CCC4(C)C3C[C@H](O)C12C (some centres undefined) | 0.99
Nc1ccncc1 | 1.23
O=c1n(Cl)c(=O)n(Cl)c(=O)n1Cl | 1.07
CCC1(c2ccc(N)cc2)CCC(=O)NC1=O (centres undefined) | 1.36
